Test: reduced growth of AddAB-expressing E. coli cells – absorbance, AddAB inhibitor project, primary screen (AID 435030)
Conditions: E. coli expressing H. pylori AddAB, at 11.9 µM
The whole screen tested about 330,000 compounds, of which about 940 (0.28%) were called active. Cut-off read from the data, not from the text of the source: active = inhibition above about 12%; inactive = the rest. Shown is part of a subset that was picked to be rich in actives.
The reply should name one outcome from active, inactive

Solved cases below.
- O=C1CCCC(O)=C1N=Nc1ccc2ncsc2c1: inactive
- O=C(O)C(c1ccccc1)N1C(=O)/C(=C\c2ccc(-c3cccc(Cl)c3)o2)SC1=S (stereo not given): inactive
- O=C(Nc1cccc(S(=O)(=O)N2CCOCC2)c1)C12CC3CC(CC(C3)C1)C2: inactive

## Input Test call for this compound, please: `O=C(N/N=C\c1ccc(-c2ccc(Cl)c(Cl)c2)o1)C(=O)N1CCCC1`
## Output inactive

## Input Test call for this compound, please: Cc1csc(NC(=O)C2CCCN2C(=O)OCC(C)C)n1 (stereo not given)
## Output inactive

## Input Test call for this compound, please: O=C1/C(=C/c2cccs2)SC(=S)N1C1CCS(=O)(=O)C1 (stereo not given)
## Output inactive

## Input Test call for this compound, please: C=C1c2c(Cl)ccc(O)c2C(O)=C2C(=O)[C@]3(O)C(O)=C(C(N)=O)C(=O)[C@@H](N(C)C)[C@@H]3[C@@H](O)C12 (stereo not given in full)
## Output active

## Input Test call for this compound, please: `O=C(CSc1ccc(-c2ccco2)nn1)Nc1cccc(F)c1`
## Output inactive

## Input Test call for this compound, please: `Cc1nnc(NC2=NCCCCC2)o1`
## Output inactive

## Input Test call for this compound, please: `CC1(C)CC(N2CCN(C(c3ccccc3)c3ccccc3)CC2)=CC(=[N+]2CCCCC2)C1`
## Output inactive

## Input Test call for this compound, please: `Cc1nnc(SCCCCSc2nnc(C)c(=O)[nH]2)[nH]c1=O`
## Output inactive

## Input Test call for this compound, please: COc1cccc(C(=O)N2CCC(n3nccc3NC(=O)C3CCOC3)CC2)c1 (stereo not given)
## Output inactive

## Input Test call for this compound, please: `C[C@H]1[C@H]2c3nc4ccccc4n3C[C@H]1ON2C1CCCCC1`
## Output inactive

## Input Test call for this compound, please: `COc1ccc(Br)cc1/C=N/Nc1ccc(Cl)c(C(=O)O)c1`
## Output inactive

## Input Test call for this compound, please: `CC(C)C[C@H]1CN=C(Nc2ccccc2)N1CC1CCCCC1`
## Output inactive

## Input Test call for this compound, please: `CSCc1ccc(C(=O)Nc2cc(C)cc(C)c2)cc1`
## Output inactive
